- Test system: isolated rat aorta
- test-name: Isolated rat aorta relaxation / contraction
- Assay type: cell-based
- condition-info: Rattus norvegicus; relaxation; read-out: vasodilating effect on the isolated rat aorta, EC50
assay-metric: EC50 (nM)

- molecule: "CCCCC[C@H](O)/C=C/[C@H]1[C@H](O)CC(=O)[C@@H]1C/C=C\\CCCC(=O)OC(CO[N+](=O)[O-])CO[N+](=O)[O-] [NITROPROSTON]"
  result: 680
- molecule: "CCCCC[C@H](O)/C=C/[C@H]1[C@H](O)CC(=NO)[C@@H]1CCCCCCC(=O)OC(CO[N+](=O)[O-])CO[N+](=O)[O-] [NITROPROX]"
  result: 640

* * *

- Tested on: isolated rat aorta
- test-name: Isolated rat aorta relaxation / contraction
- Assay type: cell-based
- condition-info: Rattus norvegicus; read-out: ISOLATED RAT AORTA contraction, EC50

- compound: "CCCCC[C@H](O)/C=C/[C@H]1[C@H](O)CC(=O)[C@@H]1C/C=C\\CCCC(=O)O [PGE2, prostaglandin E2, reference compound]"
  EC50: "84 µM"

* * *

EC50 by entry:
- Tested on: RAT UTERUS
- test-name: Rat uterus contraction
- Format: cell-based
- condition-info: Rattus norvegicus; contraction; read-out: stimulating rat uterine contractions, EC50

- compound: "CCCCC[C@H](O)/C=C/[C@@H]1[C@@H](C/C=C\\CCCC(=O)O)[C@@H](O)C[C@H]1O [PGF2α, prostaglandin F2α, reference compound]"
  display-unit: "nM"
  EC50: 110
- compound: "CCCCC[C@H](O)/C=C/[C@@H]1[C@@H](C/C=C\\CCCC(=O)OC(CO[N+](=O)[O-])CO[N+](=O)[O-])[C@@H](O)C[C@H]1O"
  display-unit: "nM"
  EC50: 9

* * *

- Tested on: isolated rat aorta
- test-name: Stability of ethanolic solution of NITROPROSTON (relaxation of isolated rat aorta contracted with adrenaline after storage)
- Assay type: cell-based
- condition-info: time of storage 12 months, read-out: Relaxation of isolated rat aorta contracted with adrenaline, ED5O

- line-notation: "CCCCC[C@H](O)/C=C/[C@H]1[C@H](O)CC(=O)[C@@H]1C/C=C\\CCCC(=O)OC(CO[N+](=O)[O-])CO[N+](=O)[O-]"
  EC50 / nM: 1770

* * *

compounds and their reported EC50
- Test system: isolated rat aorta
- test-name: Isolated rat aorta relaxation / contraction
- Type: cell-based
- condition-info: Rattus norvegicus; read-out: ISOLATED RAT AORTA relaxation, EC50
assay-metric: EC50 (nM)

- compound: "CCCCC[C@H](O)/C=C/[C@H]1[C@H](O)CC(=O)[C@@H]1C/C=C\\CCCC(=O)OC(CO[N+](=O)[O-])CO[N+](=O)[O-] [NITROPROSTON]"
  assayed-target: "isolated rat aorta"
  result: 680
- compound: "CCCCC[C@H](O)/C=C/[C@@H]1[C@@H](C/C=C\\CCCC(=O)OC(CO[N+](=O)[O-])CO[N+](=O)[O-])[C@@H](O)C[C@H]1O [NITROPROST-F]"
  assayed-target: "isolated rat aorta"
  result: 540
